Each recorded value in this set is attributed to patent US11613527B2.

assay: Solubility after 24 hrs in Fasted State Simulated Intestinal Fluid (FaSSIF); format: physicochemical; conditions: Fasted State Simulated Intestinal Fluid (FaSSIF), thermodynamic from solid, 24 hrs at 37° C., nominal concentration 1 mg/mL (as free base)
// solubility at 24 h lookup, one value per entry

Study these solved cases before continuing.
>  <chemical-smiles>
CCN1CCc2ccc(Cn3cc(C(=O)NCc4c(-n5cnc(C(F)F)n5)ccc(OC)c4F)c(COC)n3)cc2C1

>  <solubility at 24 h>
> 1000 µg/mL

$$$$
>  <chemical-smiles>
COCc1nc(C(=O)NCc2c(-n3cc(C)nn3)ccc(OC)c2F)cn1Cc1ccc2c(c1)CN(C)CC2

>  <solubility at 24 h>
> 1000 µg/mL

$$$$

Task: Param item = COCc1nn(Cc2ccc3c(c2)CN(C)CC3)cc1C(=O)NCc1c(-n2cnc(C(F)F)n2)ccc(OC)c1F ; retrieve measured solubility at 24 h.
Output: > 1000 µg/mL

* * *

experiment: Solubility after 24 hrs in Fasted State Simulated Intestinal Fluid (FaSSIF); format: physicochemical; conditions: Fasted State Simulated Intestinal Fluid (FaSSIF), thermodynamic from solid, 24 hrs at 37° C., nominal concentration 1 mg/mL (as free base)
result-type: solubility at 24 h (µg/mL)

>  <compound>
COCc1nn(Cc2ccc3c(c2)CN(C)CC3)cc1C(=O)NCc1c(-n2ccc(C#N)n2)ccc(OC)c1F

>  <endpoint-unit>
µg/mL

>  <experimental-result>
730

$$$$
>  <compound>
COCc1nn(Cc2ccc3c(c2)CN(C(C)C)CC3)cc1C(=O)NCc1c(-n2cnc(C(F)F)n2)ccc(OC)c1F

>  <endpoint-unit>
µg/mL

>  <experimental-result>
870

$$$$
>  <compound>
COCc1nn(Cc2ccc3c(c2)CCN(C)C3)cc1C(=O)NCc1c(-n2ccc(C#N)n2)ccc(OC)c1F

>  <endpoint-unit>
µg/mL

>  <experimental-result>
800

$$$$

[1] COCc1nn(Cc2ccc3ccncc3c2)cc1C(=O)NCc1c(-n2cc(C)nn2)ccc(OC)c1F [RC1, reference compound]
[2] COCc1nn(Cc2ccc3c(c2)CN(C(C)C)CC3)cc1C(=O)NCc1c(-n2ccc(C#N)n2)ccc(OC)c1F
Task: Task for the reader: decide whether 1 or 2 has the larger solubility at 24 h. Returns: label corresponding to the selected item.
Output: 2
(2: 730 µg/mL, 1: 40 µg/mL)

* * *

biological target: Human FXIa (Homo sapiens (Human), UniProt P03951); assay: Determination of the % inhibition for FXIa (fluorogenic substrate Z-Gly-Pro-Arg-AFC; 40 μM or IC50); type: biochemical
Sequence (P03951 388-625): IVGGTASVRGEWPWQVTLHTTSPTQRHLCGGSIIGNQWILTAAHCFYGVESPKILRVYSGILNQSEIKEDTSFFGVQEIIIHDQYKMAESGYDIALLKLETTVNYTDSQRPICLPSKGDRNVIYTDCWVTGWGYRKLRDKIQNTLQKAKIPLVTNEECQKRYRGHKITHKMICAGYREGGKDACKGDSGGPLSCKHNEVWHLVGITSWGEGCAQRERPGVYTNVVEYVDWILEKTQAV
Sequence (P03951 19-387 partner): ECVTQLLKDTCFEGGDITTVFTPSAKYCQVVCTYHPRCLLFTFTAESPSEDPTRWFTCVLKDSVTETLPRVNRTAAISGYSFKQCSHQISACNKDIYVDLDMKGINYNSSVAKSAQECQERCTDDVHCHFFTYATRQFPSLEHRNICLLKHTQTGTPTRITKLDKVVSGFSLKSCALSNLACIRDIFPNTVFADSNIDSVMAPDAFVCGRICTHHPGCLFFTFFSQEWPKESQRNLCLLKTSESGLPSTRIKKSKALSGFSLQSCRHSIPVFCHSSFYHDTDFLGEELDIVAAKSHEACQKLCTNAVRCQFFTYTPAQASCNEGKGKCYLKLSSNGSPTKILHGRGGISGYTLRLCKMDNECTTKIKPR
pIC50: −log10 of the molar value.
In this section we review reported pIC50 values for a set of compounds.

Below are worked cases with known answers.
>  <chemical-smiles>
COCc1nn(Cc2ccc3c(c2)CN(C(C)C)CC3)cc1C(=O)NCc1c(-n2cnc(C(F)(F)F)n2)ccc(OC)c1F

>  <pIC50>
< 4.40

$$$$
>  <chemical-smiles>
COCc1nn(Cc2ccc3c(c2)CN(C)CC3)cc1C(=O)NCc1c(-n2cnc(C(F)F)n2)ccc(Cl)c1F

>  <pIC50>
< 4.40

$$$$

Task: Query (compound): COCc1nn(Cc2ccc3c(c2)CCOC3)cc1C(=O)NCc1c(-n2cc(C)nn2)ccc(OC)c1F ; field requested: pIC50
Output: < 4.40

* * *

experiment: Solubility after 24 hrs in Fasted State Simulated Intestinal Fluid (FaSSIF); type: physicochemical; conditions: Fasted State Simulated Intestinal Fluid (FaSSIF), thermodynamic from solid, 24 hrs at 37° C., nominal concentration 1 mg/mL (as free base)
result-type: solubility at 24 h (µg/mL)

Consider the following illustrative entries.
>  <compound>
CCN1CCc2ccc(Cn3cc(C(=O)NCc4c(-n5cnc(C(F)(F)F)n5)ccc(OC)c4F)c(COC)n3)cc2C1 [Example 25]

>  <endpoint-unit>
µg/mL

>  <solubility at 24 h>
1000

$$$$
>  <compound>
COCc1nn(Cc2ccc3c(c2)CCN(C(C)C)C3)cc1C(=O)NCc1c(-n2cnc(C(F)(F)F)n2)ccc(OC)c1F [Example 45]

>  <endpoint-unit>
µg/mL

>  <solubility at 24 h>
840

$$$$
>  <compound>
COCc1nn(Cc2ccc3c(c2)CN(C)C3)cc1C(=O)NCc1c(-n2cc(C)nn2)ccc(OC)c1F [Example 54]

>  <endpoint-unit>
µg/mL

>  <solubility at 24 h>
820

$$$$
>  <compound>
COCc1nn(Cc2cnc3c(c2)CN(C(C)C)CC3)cc1C(=O)NCc1c(-n2cc(C)nn2)ccc(OC)c1F [Example 132]

>  <endpoint-unit>
µg/mL

>  <solubility at 24 h>
560

$$$$
>  <compound>
COc1ccc(-n2cc(C)nn2)c(CNC(=O)c2ccc(=O)n(Cc3ccc4c(c3)CN(C)CC4)c2)c1F [Example 160]

>  <endpoint-unit>
µg/mL

>  <solubility at 24 h>
820

$$$$

[I] COCc1nn(Cc2ccc3c(c2)CCN(C2CC2)C3)cc1C(=O)NCc1c(-n2cc(C)nn2)ccc(OC)c1F [Example 35]
[II] COCc1nn(Cc2ccc3c(c2)CN(C(C)C)CC3)cc1C(=O)NCc1c(-n2cc(C#N)cn2)ccc(OC)c1F [Example 30]
Task: solubility at 24 h comparison. Which is larger, I or II ? To answer, give the label that identifies your chosen option.
Output: II
(II: 920 µg/mL, I: 510 µg/mL)

* * *

Notes on IC50 obtained with Human FXIa (Homo sapiens (Human), UniProt P03951).
result-type: IC50 (µM)

>  <molecule>
COCc1nn(Cc2ccc3c(c2)CN(C)C3)cc1C(=O)NCc1c(-n2cnc(C(F)F)n2)ccc(OC)c1F [Example 57]

>  <experimental-result>
28.8

$$$$

[P] COCc1nn(Cc2ccc3ncccc3c2)cc1C(=O)NCc1c(-n2cnnn2)ccc(OC)c1F [RC3, reference compound]
[Q] CCN1CCc2ccc(Cn3cc(C(=O)NCc4c(-n5ccc(C#N)n5)ccc(OC)c4F)c(COC)n3)cc2C1 [Example 27]
Task: For the two items P and Q , which reports the higher IC50 value? To answer, give the label that identifies your chosen option.
Output: Q

* * *

target: Human plasma kallikrein (Homo sapiens (Human), UniProt P03952); assay: Determination of the IC50 for plasma kallikrein (fluorogenic substrate H-DPro-Phe-Arg-AFC); format: biochemical; settings: class symbols A-D, read-out: IC50 (human PKal)
Sequence (P03952 391-638): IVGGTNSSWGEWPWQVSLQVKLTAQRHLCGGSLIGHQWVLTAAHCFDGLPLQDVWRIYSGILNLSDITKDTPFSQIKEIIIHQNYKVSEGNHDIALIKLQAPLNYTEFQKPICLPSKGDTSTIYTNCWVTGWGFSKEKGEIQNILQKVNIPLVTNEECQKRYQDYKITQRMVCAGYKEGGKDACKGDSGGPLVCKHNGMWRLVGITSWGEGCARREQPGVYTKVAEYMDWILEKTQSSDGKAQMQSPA
Sequence (P03952 20-390 partner): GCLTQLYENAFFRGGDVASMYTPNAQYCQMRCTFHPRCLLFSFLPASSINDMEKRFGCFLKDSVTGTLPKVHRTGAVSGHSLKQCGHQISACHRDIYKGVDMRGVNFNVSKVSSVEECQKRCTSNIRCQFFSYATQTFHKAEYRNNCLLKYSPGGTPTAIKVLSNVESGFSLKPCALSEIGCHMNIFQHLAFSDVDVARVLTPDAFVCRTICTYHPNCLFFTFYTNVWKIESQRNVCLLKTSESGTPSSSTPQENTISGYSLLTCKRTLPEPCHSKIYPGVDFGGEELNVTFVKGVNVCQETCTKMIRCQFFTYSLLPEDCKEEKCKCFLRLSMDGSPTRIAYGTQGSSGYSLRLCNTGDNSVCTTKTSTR
pIC50: −log10 of the molar value.
Recorded pIC50 by entry

The following compounds have reported results that may help.
>  <compound>
COCc1nn(Cc2cc3c(cc2F)CCN(C)C3)cc1C(=O)NCc1c(-n2cc(C)nn2)ccc(OC)c1F [Example 118]

>  <system-tested>
Human plasma kallikrein (Homo sapiens (Human), UniProt P03952)

>  <experimental-result>
> 8.00

$$$$
>  <compound>
CCN1CCc2cc(Cn3cc(C(=O)NCc4c(-n5ccc(C#N)n5)ccc(OC)c4F)c(COC)n3)ccc2C1 [Example 52]

>  <system-tested>
Human plasma kallikrein (Homo sapiens (Human), UniProt P03952)

>  <experimental-result>
> 8.00

$$$$
>  <compound>
COCc1nn(Cc2ccc3c(c2)CN(C2CC2)CC3)cc1C(=O)NCc1c(-n2cnc(C(F)(F)F)n2)ccc(OC)c1F [Example 20]

>  <system-tested>
Human plasma kallikrein (Homo sapiens (Human), UniProt P03952)

>  <experimental-result>
7.52 to 8.00

$$$$

Task: Can you look up pIC50 on Human plasma kallikrein (Homo sapiens (Human), UniProt P03952) for COCc1nn(Cc2ccc3c(c2)CN(C)CCO3)cc1C(=O)NCc1c(-n2cc(C)nn2)ccc(OC)c1F [Example 108] ?
Output: 6.00 to 7.00

Task: And CCc1ncn(-c2ccc(OC)c(F)c2CNC(=O)c2cn(Cc3ccc4c(c3)CN(C)CC4)nc2COC)n1 [Example 6] ?
Output: > 8.00

Task: COCc1nn(Cc2ccc3c(c2)C2CCC3N2C(C)C)cc1C(=O)NCc1c(-n2cc(C)nn2)ccc(OC)c1F (centres unmarked) [Example 123] , same question.
Output: 7.00 to 7.52

Task: Please do the same for COc1ccc(-n2cc(C)nn2)c(CNC(=O)c2cn(Cc3cc4n(n3)CCN(C)C4)nc2C(F)(F)F)c1F [Example 125] as well.
Output: > 8.00

Task: Repeat with COCc1nn(Cc2ccc3c(c2)COCC3)cc1C(=O)NCc1c(-n2cc(C)nn2)ccc(OC)c1F [Example 133]
Output: 6.00 to 7.00

Task: Let us now turn to COCc1nn(Cc2ccc3c(c2)CCOC3)cc1C(=O)NCc1c(-n2cc(C)nn2)ccc(OC)c1F [Example 68]
Output: 7.52 to 8.00

* * *

experiment: Solubility after 24 hrs in Fasted State Simulated Intestinal Fluid (FaSSIF); format: physicochemical; conditions: Fasted State Simulated Intestinal Fluid (FaSSIF), thermodynamic from solid, 24 hrs at 37° C., nominal concentration 1 mg/mL (as free base)
result-type: solubility at 24 h (mg/mL)

>  <chemical-smiles>
COCc1nn(Cc2ccc3c(c2)CN(C)CC3)cc1C(=O)NCc1c(-n2cc(C)nn2)ccc(OC)c1F

>  <endpoint-unit>
mg/mL

>  <solubility at 24 h>
0.71

$$$$
>  <chemical-smiles>
COc1ccc(-n2cc(C)nn2)c(CNC(=O)c2cn(Cc3ccc4c(c3)CN(C)CC4)c(C3CC3)n2)c1F

>  <endpoint-unit>
mg/mL

>  <solubility at 24 h>
0.91

$$$$
>  <chemical-smiles>
CCN1CCc2cc(Cn3cc(C(=O)NCc4c(-n5cc(C)nn5)ccc(OC)c4F)c(COC)n3)ccc2C1

>  <endpoint-unit>
mg/mL

>  <solubility at 24 h>
0.74

$$$$
>  <chemical-smiles>
COCc1nn(Cc2ccc3c(c2)CCN(C)C3)cc1C(=O)NCc1c(-n2cnc(C(F)(F)F)n2)ccc(OC)c1F

>  <endpoint-unit>
mg/mL

>  <solubility at 24 h>
0.87

$$$$
